Target: Recombinant human PAD2 (residues 1-665) (Homo sapiens, UniProt Q9Y2J8)
Construct: Recombinant human PAD2 (residues 1-665) was expressed in baculovirus-infected Sf9 insect cells; 6His-FLAG (N); made in house; host or cells: baculovirus-infected Sf9 insect cells
Sequence (Q9Y2J8 whole entry, the tested form may be a part): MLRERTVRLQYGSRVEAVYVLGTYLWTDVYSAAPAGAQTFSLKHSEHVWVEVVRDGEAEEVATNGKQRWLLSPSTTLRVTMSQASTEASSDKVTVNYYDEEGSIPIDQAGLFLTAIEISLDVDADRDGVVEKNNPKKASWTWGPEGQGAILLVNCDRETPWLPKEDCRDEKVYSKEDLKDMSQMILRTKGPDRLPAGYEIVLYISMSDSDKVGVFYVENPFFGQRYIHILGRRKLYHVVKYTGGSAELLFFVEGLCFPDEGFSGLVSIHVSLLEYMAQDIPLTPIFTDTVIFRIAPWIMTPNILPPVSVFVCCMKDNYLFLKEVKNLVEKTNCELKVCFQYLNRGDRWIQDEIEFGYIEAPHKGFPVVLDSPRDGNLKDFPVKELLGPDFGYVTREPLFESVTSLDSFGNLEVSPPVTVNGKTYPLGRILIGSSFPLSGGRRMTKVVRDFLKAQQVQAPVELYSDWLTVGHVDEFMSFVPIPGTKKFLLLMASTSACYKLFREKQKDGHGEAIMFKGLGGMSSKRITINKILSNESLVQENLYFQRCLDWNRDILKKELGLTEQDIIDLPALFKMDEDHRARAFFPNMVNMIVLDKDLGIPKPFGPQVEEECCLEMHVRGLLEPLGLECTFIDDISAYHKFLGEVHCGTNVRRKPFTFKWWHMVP
Assay: PAD2 enzyme assay (FLINT NH3 release, BAEE substrate)
Assay type: biochemical
Conditions: PAD2 enzyme assay above or similar assays; to assess selectivity for PAD4 over PAD2; read-out: mean pIC50 (converted)
Measured parameter: IC50

{"Compound smiles": "Cn1c(-c2cc3ccccc3n2CC2CC2)nc2cc(C(=O)N3CCC[C@@H](N)C3)ccc21", "IC50": "≥ 10 µM"}
{"Compound smiles": "CCn1c(-c2nc3cc(C(=O)N4CCC[C@@H](N)C4)ccc3n2C)cc2cccc(OC)c21", "IC50": "≥ 10 µM"}
{"Compound smiles": "CC(C)n1c(-c2nc3cc(C(=O)N4CCC[C@@H](N)C4)ccc3n2C)cc2ccccc21", "IC50": "≥ 10 µM"}

Query: IC50; subject: CCn1c(-c2nc3cc(C(=O)N4CCC[C@@H](N)C4)ccc3n2C)cc2ccccc21 ≥ 10 µM

Consider the compound shown here: CCn1c(-c2nc3cc(C(=O)N4CCC[C@@H](N)C4)cc(N(C)C)c3n2C)cc2ccccc21 What is its recorded IC50? > 79.4 µM

Would you kindly share the measured IC50 for COCCn1c(-c2nc3cc(C(=O)N4CCC[C@@H](N)C4)ccc3n2C)cc2ccccc21 ? > 79.4 µM

Which measured IC50 value corresponds to Cn1c(-c2cc3ccccc3n2CC2CC2)nc2cc(C(=O)N3CC[C@@H](O)[C@@H](N)C3)ccc21 ? > 79.4 µM

Find the recorded IC50 belonging to CCOc1ccc2cc(-c3nc4cc(C(=O)N5CCC[C@@H](N)C5)ccc4n3C)n(CC)c2c1 and report it. ≥ 10 µM

---

Target: Recombinant human PAD2 (residues 1-665) (Homo sapiens, UniProt Q9Y2J8)
Construct: Recombinant human PAD2 (residues 1-665) was expressed in baculovirus-infected Sf9 insect cells; 6His-FLAG (N); made in house; host or cells: baculovirus-infected Sf9 insect cells
Assay: PAD2 enzyme assay (FLINT NH3 release, BAEE substrate)
Format: biochemical
Conditions: PAD2 enzyme assay above or similar assays; to assess selectivity for PAD4 over PAD2; read-out: mean pIC50 (converted)
Experimental: Activity of the final product was determined using a FLINT NH3 release assay. 8 μl of PAD2 enzyme diluted to an assay concentration of 30 nM in assay buffer (100 mM HEPES, 50 mM NaCl, 2 mM DTT, 7.5% glycerol and 1.5 mM CHAPS pH 8), and added to wells containing 0.1 μl of various concentrations of compound or DMSO vehicle (0.8% final) in a Greiner high volume 384 well black plate. […]
Measured parameter: IC50

Below, 5 compounds whose answers are already recorded.
{"Compound": "CCc1cc(C(=O)N2CCC[C@@H](N)C2)cc2nc(-c3cc4ccccc4n3CC)n(C)c12", "Result": "≥ 10 µM"}
{"Compound": "CCn1c(-c2nc3cc(C(=O)N4CC[C@@H](O)[C@@H](N)C4)cc(OC)c3n2C)cc2ccccc21", "Result": "> 79.4 µM"}
{"Compound": "COc1cc(C(=O)N2CCC[C@@H](N)C2)cc2nc(-c3cc4ccccc4n3CC#N)n(C)c12", "Result": "≥ 10 µM"}
{"Compound": "CCn1c(-c2nc3cc(C(=O)N4C[C@@H](N)CC[C@H]4C)ccc3n2C)cc2ccccc21 (single isomer, unassigned)", "Result": "> 79.4 µM"}
{"Compound": "CCn1c(-c2nc3cc(C(=O)N4CC[C@H](OC)[C@@H](N)C4)ccc3n2C)cc2ccccc21 (racemic)", "Result": "> 79.4 µM"}

GET /values?readout=IC50&item= CCn1c(-c2nc3cc(C(=O)N4CCC[C@@H](N)C4)cc(OCCOC)c3n2C)cc2ccccc21 ≥ 10 µM

Can you share its IC50? I mean this compound: COc1cc(C(=O)N2CC[C@@H](O)[C@@H](N)C2)cc2nc(-c3cc4ccccc4n3CC(F)(F)F)n(C)c12 [Example 58a] ≥ 10 µM

Given the compound CCn1c(-c2nc3cc(C(=O)N4CCC[C@@H](N)C4)cnc3n2C)cc2ccccc21 , what is its reported IC50? > 79.4 µM
